Measured values drawn from patent US12071453B2 for this set.

Target: GABAA receptors composed of the α4β3δ subunits (GABRA4/GABRB3/GABRD) (Homo sapiens, UniProt P28472+P48169)
Construct: expressed in transfected cells; host or cells: Xenopus laevis oocytes, injected (ratio 5:1:5)
Sequence (P48169 36-554): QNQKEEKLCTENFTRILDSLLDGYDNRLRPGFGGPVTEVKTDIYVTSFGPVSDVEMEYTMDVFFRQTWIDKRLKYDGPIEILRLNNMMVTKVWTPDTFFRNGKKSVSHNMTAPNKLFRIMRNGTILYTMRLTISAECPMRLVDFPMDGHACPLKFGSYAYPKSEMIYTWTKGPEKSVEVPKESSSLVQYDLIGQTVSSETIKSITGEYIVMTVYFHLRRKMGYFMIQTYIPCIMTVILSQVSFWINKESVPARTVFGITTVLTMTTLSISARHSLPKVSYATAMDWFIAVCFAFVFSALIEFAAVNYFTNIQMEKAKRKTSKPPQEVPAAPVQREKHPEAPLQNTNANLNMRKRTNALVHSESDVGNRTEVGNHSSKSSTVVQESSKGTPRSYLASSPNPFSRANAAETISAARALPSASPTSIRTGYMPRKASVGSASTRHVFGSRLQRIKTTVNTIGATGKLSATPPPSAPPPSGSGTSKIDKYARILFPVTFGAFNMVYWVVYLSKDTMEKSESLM
Sequence (P28472 26-473): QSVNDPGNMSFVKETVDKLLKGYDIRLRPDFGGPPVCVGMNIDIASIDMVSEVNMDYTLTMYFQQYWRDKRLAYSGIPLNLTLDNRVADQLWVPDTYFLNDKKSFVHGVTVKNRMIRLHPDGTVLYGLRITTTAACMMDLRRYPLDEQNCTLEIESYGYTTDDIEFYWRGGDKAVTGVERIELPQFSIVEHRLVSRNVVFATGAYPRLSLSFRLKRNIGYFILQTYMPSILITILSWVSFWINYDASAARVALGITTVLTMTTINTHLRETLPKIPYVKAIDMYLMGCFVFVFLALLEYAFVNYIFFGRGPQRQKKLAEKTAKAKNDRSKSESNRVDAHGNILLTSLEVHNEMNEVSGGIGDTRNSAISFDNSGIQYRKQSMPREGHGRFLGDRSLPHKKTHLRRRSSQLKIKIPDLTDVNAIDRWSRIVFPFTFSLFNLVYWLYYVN
Sequence (O14764 25-452 partner): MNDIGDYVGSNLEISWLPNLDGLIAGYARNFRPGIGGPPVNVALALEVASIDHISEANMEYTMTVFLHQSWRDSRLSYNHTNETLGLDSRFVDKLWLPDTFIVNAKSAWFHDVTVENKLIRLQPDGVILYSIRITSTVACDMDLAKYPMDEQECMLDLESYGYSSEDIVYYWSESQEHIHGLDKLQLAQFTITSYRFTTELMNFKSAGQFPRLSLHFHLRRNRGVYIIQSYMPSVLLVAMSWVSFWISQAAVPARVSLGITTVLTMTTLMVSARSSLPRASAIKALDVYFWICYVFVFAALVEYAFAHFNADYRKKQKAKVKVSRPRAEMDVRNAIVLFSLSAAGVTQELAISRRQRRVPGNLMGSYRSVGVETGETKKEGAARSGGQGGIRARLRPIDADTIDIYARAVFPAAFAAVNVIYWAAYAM
Experiment: Two Electrode Voltage Clamp (TEVC), GABA receptor potentiation in Xenopus laevis oocytes, α4β3δ
Type: cell-based
Conditions: 10 μM compound, 3 μM GABA, read-out: GABA (α4β3δ) % efficacy at 10 μM
Entries and their Emax at 10 µM

Known Emax at 10 µM results, listed for orientation:
(Q) Which measured Emax at 10 µM value corresponds to COC[C@]12CC[C@@](C)(O)C[C@@H]1CC[C@H]1[C@@H]3CC[C@H](C(=O)Cn4cc5ccc(Cl)cc5n4)[C@@]3(C)CC[C@@H]12 [Compound 113] ?
(A) 500 to 1000%

(Q) Input CCOC[C@]12CC[C@@](C)(O)C[C@@H]1CC[C@H]1[C@@H]3CC[C@H](C(=O)Cn4nnnc4C)[C@@]3(C)CC[C@@H]12 [Compound 26]
(A) 1000 to 1500%

(Q) Input COC[C@]12CC[C@@](C)(O)C[C@H]1CC[C@H]1[C@@H]3CC[C@H](C(=O)Cn4ccnn4)[C@@]3(C)CC[C@@H]12 [Compound 32]
(A) 1000 to 1500%

(Q) Input CCOC[C@]12CC[C@@](C)(O)C[C@@H]1CC[C@H]1[C@@H]3CC[C@H](C(=O)Cn4nnc5cc(Cl)ccc54)[C@@]3(C)CC[C@@H]12 [Compound 71]
(A) 1000 to 1500%

More entries:
(Q) Which measured Emax at 10 µM value corresponds to COC[C@]12CC[C@@](C)(O)C[C@@H]1CC[C@H]1[C@@H]3CC[C@H](C(=O)Cn4nnc5c(F)cccc54)[C@@]3(C)CC[C@@H]12 [Compound 48] ?
(A) 50 to 500%

(Q) Input CCOC[C@]12CC[C@@](C)(O)C[C@@H]1CC[C@H]1[C@@H]3CC[C@H](C(=O)Cn4nnc5ccc(Cl)cc54)[C@@]3(C)CC[C@@H]12 [Compound 70]
(A) 1000 to 1500%
